Each entry below carries its reported pKd.
- assayed target: T1, mouse latent myostatin (mouse, UniProt O08689 26-267; O08689 268-376)
- T1 sequence 1: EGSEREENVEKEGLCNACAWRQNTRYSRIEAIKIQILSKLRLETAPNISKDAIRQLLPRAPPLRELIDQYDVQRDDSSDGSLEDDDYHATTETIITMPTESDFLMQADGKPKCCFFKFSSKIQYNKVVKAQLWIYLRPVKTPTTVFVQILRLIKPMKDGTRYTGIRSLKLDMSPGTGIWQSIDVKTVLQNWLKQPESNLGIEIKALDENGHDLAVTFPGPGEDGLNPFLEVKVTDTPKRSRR
- T1 sequence 2: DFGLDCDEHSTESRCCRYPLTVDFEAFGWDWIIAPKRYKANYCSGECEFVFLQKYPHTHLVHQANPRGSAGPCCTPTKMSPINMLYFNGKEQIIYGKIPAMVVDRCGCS
- assay info: SPR 37C pH7.4; pH 7.4
Just the number, please; pKd means minus log10 of the concentration in mol/L.

These solved cases illustrate the format of a correct answer.
MS_M103245H795-SG1/M103202L1045-SK1 (antibody, human IgG1, kappa, V domains shown, also called MS1032LO21-SG1) VH: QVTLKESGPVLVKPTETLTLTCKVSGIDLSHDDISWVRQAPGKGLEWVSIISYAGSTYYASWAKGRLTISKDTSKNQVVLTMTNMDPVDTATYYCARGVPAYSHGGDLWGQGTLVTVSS VL: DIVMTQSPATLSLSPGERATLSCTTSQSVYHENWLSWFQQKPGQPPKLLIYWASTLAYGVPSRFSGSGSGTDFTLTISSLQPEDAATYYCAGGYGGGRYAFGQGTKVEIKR = 9.58
MS_M103205H1057-SG1/M103202L889-SK1 (antibody, human IgG1, kappa, V domains shown, also called MS1032LO12-SG1) VH: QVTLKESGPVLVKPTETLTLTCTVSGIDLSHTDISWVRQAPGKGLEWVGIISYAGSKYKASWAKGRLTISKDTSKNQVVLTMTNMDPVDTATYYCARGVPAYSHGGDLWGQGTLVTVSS VL: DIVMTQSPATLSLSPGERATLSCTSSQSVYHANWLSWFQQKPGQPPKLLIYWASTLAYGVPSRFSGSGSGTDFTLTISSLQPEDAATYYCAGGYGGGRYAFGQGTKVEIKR = 9.38
MS_M103205H1046-SG1/M103202L889-SK1 (antibody, human IgG1, kappa, V domains shown, also called MS1032LO10-SG1) VH: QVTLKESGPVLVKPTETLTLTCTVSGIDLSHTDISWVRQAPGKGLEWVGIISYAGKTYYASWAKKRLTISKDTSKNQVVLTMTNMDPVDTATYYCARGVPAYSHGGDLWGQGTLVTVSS VL: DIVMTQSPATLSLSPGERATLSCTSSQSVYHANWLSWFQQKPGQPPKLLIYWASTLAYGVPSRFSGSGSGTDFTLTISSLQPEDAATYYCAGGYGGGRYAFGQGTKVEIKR = 9.50
MS_M103245H1233-SG1/M103202L1045-SK1 (antibody, human IgG1, kappa, V domains shown, also called MS1032LO23-SG1) VH: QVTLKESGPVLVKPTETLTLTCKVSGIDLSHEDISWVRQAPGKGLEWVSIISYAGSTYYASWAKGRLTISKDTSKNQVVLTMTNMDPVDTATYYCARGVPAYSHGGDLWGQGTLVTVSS VL: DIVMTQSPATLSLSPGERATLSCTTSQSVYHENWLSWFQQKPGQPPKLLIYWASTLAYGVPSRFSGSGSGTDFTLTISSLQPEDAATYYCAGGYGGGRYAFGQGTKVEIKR = 9.58
MS_M103205H1047-SG1/M103202L889-SK1 (antibody, human IgG1, kappa, V domains shown, also called MS1032LO11-SG1) VH: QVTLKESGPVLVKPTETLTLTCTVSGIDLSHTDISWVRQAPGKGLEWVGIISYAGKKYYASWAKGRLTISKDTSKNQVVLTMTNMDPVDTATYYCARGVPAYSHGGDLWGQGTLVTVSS VL: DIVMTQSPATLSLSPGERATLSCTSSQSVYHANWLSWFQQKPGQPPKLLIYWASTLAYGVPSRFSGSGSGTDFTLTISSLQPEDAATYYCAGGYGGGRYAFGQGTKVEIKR = 9.44
MS_M103205H795-SG1/M103202L1060-SK1 (antibody, human IgG1, kappa, V domains shown, also called MS1032LO24-SG1) VH: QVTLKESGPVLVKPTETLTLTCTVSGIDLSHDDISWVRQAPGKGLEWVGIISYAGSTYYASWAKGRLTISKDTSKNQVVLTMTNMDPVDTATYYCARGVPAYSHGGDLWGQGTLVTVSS VL: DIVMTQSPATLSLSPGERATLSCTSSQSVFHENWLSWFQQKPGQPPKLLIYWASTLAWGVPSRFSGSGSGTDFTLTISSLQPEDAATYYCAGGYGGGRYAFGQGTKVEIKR = 9.75
MS_M103240H1246-SG1/M103202L1045-SK1 (antibody, human IgG1, kappa, V domains shown, also called MS1032LO25-SG1) VH: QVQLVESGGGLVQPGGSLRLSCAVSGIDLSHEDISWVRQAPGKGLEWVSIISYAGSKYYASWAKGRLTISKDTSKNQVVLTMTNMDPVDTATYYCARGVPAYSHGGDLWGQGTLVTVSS VL: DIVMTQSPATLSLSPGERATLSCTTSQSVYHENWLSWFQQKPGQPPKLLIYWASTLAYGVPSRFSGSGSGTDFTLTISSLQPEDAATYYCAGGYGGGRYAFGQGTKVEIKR = 9.59

Note: attention shifts to another entry.
Query string: Name the reported pKd value associated with the binder MS_M103205H1004-SG1/M103202L889-SK1 (antibody, human IgG1, kappa, V domains shown, also called MS1032LO07-SG1) VH: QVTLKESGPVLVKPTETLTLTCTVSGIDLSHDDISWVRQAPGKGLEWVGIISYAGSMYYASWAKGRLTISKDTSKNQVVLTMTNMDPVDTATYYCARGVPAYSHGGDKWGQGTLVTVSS VL: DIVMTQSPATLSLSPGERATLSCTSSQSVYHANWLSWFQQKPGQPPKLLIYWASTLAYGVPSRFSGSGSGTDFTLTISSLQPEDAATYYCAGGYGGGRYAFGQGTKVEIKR
Result string: 9.50
